B1: FAM98B (parent)
chain: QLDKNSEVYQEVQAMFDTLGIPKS

- Variants of: B1
- assay-name: protein stability index of a GFP-peptide fusion (GPS, HEK-293T) (PSI 1-6); higher = more stable;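 also: lentivirally expressed fusions sorted by FACS into six bins by GFP to DsRed ratio, PSI derived from sequencing read proportions per bin multiplied by bin number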
- assay-context: c terminus: a fixed tail appended
Returns one of fulfilled or not fulfilled; fulfilled when protein stability index is >= 3.

[[record]]
mutation_descriptor = "I21L"
category_label = "fulfilled"

[[record]]
mutation_descriptor = "A14Y"
category_label = "fulfilled"

[[record]]
mutation_descriptor = "L2S"
category_label = "fulfilled"

[[record]]
mutation_descriptor = "Q13Y"
category_label = "not fulfilled"

[[record]]
mutation_descriptor = "Q1M"
category_label = "not fulfilled"


Item "Q10E" with protein stability index of 3 or above? fulfilled

Likewise for "L2H" ? fulfilled

Do the same for "L19N" please fulfilled

Would you kindly repeat that for "I21H" ? fulfilled

Entry "A14E" please fulfilled

// next record "Q10H" not fulfilled

"Q10W" ? not fulfilled

Another: "Q10L" not fulfilled

Try "Y9H" next. fulfilled

Repeat for the following variant: "S6Y" not fulfilled

Also, "M15K" please. fulfilled

Next up: "A14H" fulfilled

Now try "Y9E" . fulfilled

Next entry: "D3A" fulfilled
